Target: UniProt P07711
Assay: Cathepsin enzyme inhibition assay (human Cat L)
Assay type: biochemical
Details: enzyme 1 nM, substrate Z-Val-Val-Arg-AMC 20 μM, pH 6.5
Structures can show the parent of a compound that is named as a salt.
Recorded Endpoint: log10 IC50 (log10 of the value in nM)
The base-10 logarithm of IC50, taken with IC50 in nM, is what appears here.

Sample answers from the record:
Compound	Assayed System	Reported Value
Cn1cc(-c2ccc(S(=O)(=O)[C@@H]3C[C@@H](C(=O)NC4(C#N)CC4)N(C(=O)C4(c5ncc(Cl)cc5F)CCN4)C3)c(Cl)c2)cn1 (stereo partly drawn) [Example 47, hydrochloride]	UniProt P07711	1.91
C[C@H](Oc1ccc(S(=O)(=O)[C@@H]2C[C@@H](C(=O)NC3(C#N)CC3)N(C(=O)C3(c4ncc(Br)cc4F)CN(CC(F)(F)F)C3)C2)c(Cl)c1)C(F)(F)F	UniProt P07711	0.78
CCN1CC(C(=O)N2C[C@H](S(=O)(=O)c3ccccc3Cl)C[C@H]2C(=O)NC2(C#N)CC2)(c2ncc(Br)cc2F)C1	UniProt P07711	1.30

Observed log10 IC50 on UniProt P07711, entry N#CC1(NC(=O)[C@@H]2C[C@@H](S(=O)(=O)c3ccc(OCC(F)(F)F)cc3Cl)CN2C(=O)C2(c3ncc(Cl)cc3F)CNC2)CC1 , equals 1.89

Observed log10 IC50 on UniProt P07711, entry N#CC1(NC(=O)[C@@H]2C[C@@H](S(=O)(=O)c3ccc(F)cc3Cl)CN2C(=O)C2(c3ncc(Br)cc3F)CCN2)CC1 (stereo partly drawn) [Example 36, hydrochloride] , equals 2.79

Observed log10 IC50 on UniProt P07711, entry CN1CC(C(=O)N2C[C@H](S(=O)(=O)c3ccccc3Cl)C[C@H]2C(=O)NC2(C#N)CC2)(c2ncc(Br)cc2F)C1 , equals 1.10

* * *

Target: human Cat L (Homo sapiens (Human), UniProt P07711)
Sequence (P07711 114-333): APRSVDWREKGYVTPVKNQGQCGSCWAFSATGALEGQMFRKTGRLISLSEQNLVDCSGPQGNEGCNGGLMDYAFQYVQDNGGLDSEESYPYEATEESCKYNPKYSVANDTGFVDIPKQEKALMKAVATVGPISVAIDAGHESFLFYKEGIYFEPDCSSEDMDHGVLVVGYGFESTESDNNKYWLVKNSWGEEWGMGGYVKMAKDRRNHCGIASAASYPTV
Assay: Cathepsin enzyme inhibition assay (human Cat L)
Format: biochemical
Settings: enzyme 1 nM, substrate Z-Val-Val-Arg-AMC 20 μM, pH 6.5
Recorded Endpoint: IC50 (nM)
All answers are understood in nM, so give the number only.

Molecule	Recorded Endpoint	Readout Unit	Reported Value
CC(C)(C)OC(=O)N1CC(C(=O)N2C[C@H](S(=O)(=O)c3ccc(OCC(F)(F)F)cc3Cl)C[C@H]2C(=O)NC2(C#N)CC2)(c2ccc(Br)cn2)C1	IC50	nM	753
CC(C)(C)OC(=O)N1CCC1(C(=O)N1C[C@H](S(=O)(=O)c2ccc(F)cc2Cl)C[C@H]1C(=O)NC1(C#N)CC1)c1ncc(Br)cc1F (stereo partly drawn) [Example 26]	IC50	nM	471
C[C@H](Oc1ccc(S(=O)(=O)[C@@H]2C[C@@H](C(=O)NC3(C#N)CC3)N(C(=O)C3(c4ncc(Br)cc4F)CN(C(=O)OC(C)(C)C)C3)C2)c(Cl)c1)C(F)(F)F	IC50	nM	89.5
CC(C)(C)OC(=O)N1CCC1(C(=O)N1C[C@H](S(=O)(=O)c2ccc(F)cc2Cl)C[C@H]1C(=O)NC1(C#N)CC1)c1ncc(Br)cc1F (stereo partly drawn) [Example 25]	IC50	nM	2910
N#CC1(NC(=O)[C@@H]2C[C@@H](S(=O)(=O)c3ccccc3Cl)CN2C(=O)C2(c3ncc(Cl)cc3F)CNC2)CC1	IC50	nM	23.6

# input for lookup
Value of IC50 reported for the molecule N#CC1(NC(=O)[C@@H]2C[C@@H](S(=O)(=O)c3ccc(OCC(F)(F)F)cc3Cl)CN2C(=O)C2(c3ccc(Cl)cn3)CNC2)CC1 is 89.8

* * *

Target: human Cat L (Homo sapiens (Human), UniProt P07711)
Assay: Cathepsin enzyme inhibition assay (human Cat L)
Type: biochemical
Conditions: enzyme 1 nM, substrate Z-Val-Val-Arg-AMC 20 μM, pH 6.5
Where a name gives a salt, the structure may show the parent alone.
Please use the following IC50 ranges when assigning a class: low (below 70 nM), middle (70 nM to below 200 nM), high (200 nM or more)

Recorded results for 3 compounds are shown here.
Compound	Discrete Label
N#CC1(NC(=O)[C@@H]2C[C@@H](S(=O)(=O)c3ccc(OCC(F)(F)F)cc3Cl)CN2C(=O)C2(c3ccc(Br)cn3)CNC2)CC1	middle
N#CC1(NC(=O)[C@@H]2C[C@@H](S(=O)(=O)c3ccc(OCC(F)(F)F)cc3Cl)CN2C(=O)C2(c3ccc(Br)cn3)CN(CC(F)F)C2)CC1	middle
C[C@H](Oc1ccc(S(=O)(=O)[C@@H]2C[C@@H](C(=O)NC3(C#N)CC3)N(C(=O)C3(c4ncc(Br)cc4F)CCN3)C2)c(Cl)c1)C(F)(F)F (some centres unmarked) [Example 39, hydrochloride]	low

Lookup: Using the reported IC50, which band applies to N#CC1(NC(=O)[C@@H]2C[C@@H](S(=O)(=O)c3ccc(OCC(F)(F)F)cc3Cl)CN2C(=O)C2(c3ccc(Cl)cn3)CN(CC(F)F)C2)CC1 ?
Found: middle

Lookup: Using the reported IC50, which band applies to COC(=O)N1CC(C(=O)N2C[C@H](S(=O)(=O)c3ccc(O[C@@H](C)C(F)(F)F)cc3Cl)C[C@H]2C(=O)NC2(C#N)CC2)(c2ncc(Br)cc2F)C1 ?
Found: low

Lookup: Using the reported IC50, which band applies to C[C@H](Oc1ccc(S(=O)(=O)[C@@H]2C[C@@H](C(=O)NC3(C#N)CC3)N(C(=O)C3(c4ncc(Cl)cc4F)CCN3C(=O)OC(C)(C)C)C2)c(Cl)c1)C(F)(F)F (some centres unmarked) [Example 27] ?
Found: high

Lookup: Using the reported IC50, which band applies to Cn1cc(-c2ccc(S(=O)(=O)[C@@H]3C[C@@H](C(=O)NC4(C#N)CC4)N(C(=O)C4(c5ncc(Br)cc5F)CCN4)C3)c(Cl)c2)cn1 (some centres unmarked) [Example 48, hydrochloride] ?
Found: middle

Lookup: Using the reported IC50, which band applies to COc1ccc(S(=O)(=O)[C@@H]2C[C@@H](C(=O)NC3(C#N)CC3)N(C(=O)C3(c4ccc(Cl)cn4)CN(C(=O)OC(C)(C)C)C3)C2)c(Cl)c1 ?
Found: high

Lookup: Using the reported IC50, which band applies to CC(C)(C)OC(=O)N1CCC1(C(=O)N1C[C@H](S(=O)(=O)c2ccc(F)cc2Cl)C[C@H]1C(=O)NC1(C#N)CC1)c1ncc(Br)cc1F (some centres unmarked) [Example 22] ?
Found: high

* * *

Molecular target: human Cat S (Homo sapiens (Human), UniProt P25774)
Sequence (P25774 115-331): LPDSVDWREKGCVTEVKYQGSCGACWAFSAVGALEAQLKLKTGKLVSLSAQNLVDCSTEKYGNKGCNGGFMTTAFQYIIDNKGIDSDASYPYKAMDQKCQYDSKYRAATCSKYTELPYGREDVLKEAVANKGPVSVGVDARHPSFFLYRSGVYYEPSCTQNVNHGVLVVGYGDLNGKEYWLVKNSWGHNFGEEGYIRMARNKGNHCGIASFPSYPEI
Assay: Cathepsin enzyme inhibition assay (human Cat S)
Assay type: biochemical
Details: enzyme 1 nM, substrate Z-Val-Val-Arg-AMC 20 μM, pH 6.5
Where a name gives a salt, the structure may show the parent alone.
Reported values of pIC50 for individual entries
pIC50 (log units): -log10 of the concentration in mol/L.

Compound	Assayed System	pIC50
N#CC1(NC(=O)[C@@H]2C[C@@H](S(=O)(=O)c3ccc(OCC(F)(F)F)cc3Cl)CN2C(=O)C2(c3ccc(Cl)cn3)CN(CC(F)F)C2)CC1	human Cat S (Homo sapiens (Human), UniProt P25774)	9.16
CC(C)(C)OC(=O)N1CCC1(C(=O)N1C[C@H](S(=O)(=O)c2ccc(F)cc2Cl)C[C@H]1C(=O)NC1(C#N)CC1)c1ncc(Cl)cc1F (stereo partly drawn) [Example 24]	human Cat S (Homo sapiens (Human), UniProt P25774)	8.34
CN1CC(C(=O)N2C[C@H](S(=O)(=O)c3ccccc3Cl)C[C@H]2C(=O)NC2(C#N)CC2)(c2ncc(Cl)cc2F)C1	human Cat S (Homo sapiens (Human), UniProt P25774)	9.28
C[C@H](Oc1ccc(S(=O)(=O)[C@@H]2C[C@@H](C(=O)NC3(C#N)CC3)N(C(=O)C3(c4ncc(Br)cc4F)CN(C(=O)OC(C)(C)C)C3)C2)c(Cl)c1)C(F)(F)F	human Cat S (Homo sapiens (Human), UniProt P25774)	8.45

Value of pIC50 reported for the compound Cc1cc(-c2ccc(S(=O)(=O)[C@@H]3C[C@@H](C(=O)NC4(C#N)CC4)N(C(=O)C4(c5ncc(Cl)cc5F)CCN4)C3)c(Cl)c2)ccn1 (stereo partly drawn) [Example 43, hydrochloride] is 8.63

Value of pIC50 reported for the compound Cn1cc(-c2ccc(S(=O)(=O)[C@@H]3C[C@@H](C(=O)NC4(C#N)CC4)N(C(=O)C4(c5ncc(Cl)cc5F)CCN4C(=O)OC(C)(C)C)C3)c(Cl)c2)cn1 (stereo partly drawn) is 9.02

Value of pIC50 reported for the compound CC(C)(C)OC(=O)N1CC(C(=O)N2C[C@H](S(=O)(=O)c3ccc(OCC(F)(F)F)cc3Cl)C[C@H]2C(=O)NC2(C#N)CC2)(c2ccc(Br)cn2)C1 is 8.43

Value of pIC50 reported for the compound CCN1CC(C(=O)N2C[C@H](S(=O)(=O)c3ccccc3Cl)C[C@H]2C(=O)NC2(C#N)CC2)(c2ncc(Br)cc2F)C1 is 9.14

Value of pIC50 reported for the compound COc1ccc(S(=O)(=O)[C@@H]2C[C@@H](C(=O)NC3(C#N)CC3)N(C(=O)C3(c4ccc(Cl)cn4)CN(C)C3)C2)c(Cl)c1 is 8.92

Value of pIC50 reported for the compound N#CC1(NC(=O)[C@@H]2C[C@@H](S(=O)(=O)c3ccc(F)cc3Cl)CN2C(=O)C2(c3ncc(Br)cc3F)CCN2)CC1 (stereo partly drawn) [Example 36, hydrochloride] is 8.85

Value of pIC50 reported for the compound Cn1cc(-c2ccc(S(=O)(=O)[C@@H]3C[C@@H](C(=O)NC4(C#N)CC4)N(C(=O)C4(c5ncc(Br)cc5F)CCN4)C3)c(Cl)c2)cn1 (stereo partly drawn) [Example 48, hydrochloride] is 8.73

Value of pIC50 reported for the compound COc1ccc(S(=O)(=O)[C@@H]2C[C@@H](C(=O)NC3(C#N)CC3)N(C(=O)C3(c4ccc(Cl)cn4)CN(C(=O)OC(C)(C)C)C3)C2)c(Cl)c1 is 8.49

Hello, the source for this data is patent US8822505B2, in case you need it.
